Value source: patent US20200040059A1

- SUBJECT_OF_TEST: PD-1 (Homo sapiens (Human)) (UniProt Q15116)
- Sequence (Q15116 21-288 limits assumed): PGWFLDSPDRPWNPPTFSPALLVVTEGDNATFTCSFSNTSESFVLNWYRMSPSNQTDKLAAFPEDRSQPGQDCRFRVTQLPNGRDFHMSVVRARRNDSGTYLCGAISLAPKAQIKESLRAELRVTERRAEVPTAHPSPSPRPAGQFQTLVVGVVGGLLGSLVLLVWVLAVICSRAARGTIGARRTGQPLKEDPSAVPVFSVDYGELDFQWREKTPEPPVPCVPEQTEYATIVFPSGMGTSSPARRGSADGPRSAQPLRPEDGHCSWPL
- TEST: flow cytometry, Jurkat/PD-1 cells; vs wildtype PD-L2 IgV-Fc
Kindly supply the reported Fold increase over wildtype PD-L2 IgV-Fc values for the records listed here.
Write the answer as a number in fold, unit excluded.

Determine its reported Fold increase over wildtype PD-L2 IgV-Fc: variant PD-L2 IgV-Fc H15Q, N32D, S67L, V89D (Fc fusion, not shown: a dimerising Fc or GST; small tags and cut ends) LFTVTVPKELYIIEQGSNVTLECNFDTGSHVDLGAITASLQKVENDTSPHRERATLLEEQLPLGKALFHIPQVQVRDEGQYQCIIIYGDAWDYKYLTLK
2.63

Please indicate Fold increase over wildtype PD-L2 IgV-Fc recorded for variant PD-L2 IgV-Fc H15Q, R76G, I85F (SEQ ID NO 1500) (Fc fusion, not shown: a dimerising Fc or GST; small tags and cut ends) LFTVTVPKELYIIEQGSNVTLECNFDTGSHVNLGAITASLQKVENDTSPHRERATLLEEQLPLGKASFHIPQVQVGDEGQYQCIFIYGVAWDYKYLTLK
0.3

Entry variant PD-L2 IgV-Fc H15Q, T47A, Q82R (Fc fusion, not shown: a dimerising Fc or GST; small tags and cut ends) LFTVTVPKELYIIEQGSNVTLECNFDTGSHVNLGAITASLQKVENDASPHRERATLLEEQLPLGKASFHIPQVQVRDEGQYRCIIIYGVAWDYKYLTLK needs its Fold increase over wildtype PD-L2 IgV-Fc filled in; supply it.
6.62

Give reported Fold increase over wildtype PD-L2 IgV-Fc value for variant PD-L2 IgV-Fc I13V, H15Q, T47A, Q82R (Fc fusion, not shown: a dimerising Fc or GST; small tags and cut ends) FTVTVPKELYIVEQGSNVTLECNFDTGSHVNLGAITASLQKVENDASPHRERATLLEEQLPLGKASFHIPQVQVRDEGQYRCIIIYGVAWDYKYLTLK
9.05
